ASSAY_SYSTEM: Phospholipase D2 (Homo sapiens) (UniProt O14939)
Sequence (O14939 whole entry, looked up): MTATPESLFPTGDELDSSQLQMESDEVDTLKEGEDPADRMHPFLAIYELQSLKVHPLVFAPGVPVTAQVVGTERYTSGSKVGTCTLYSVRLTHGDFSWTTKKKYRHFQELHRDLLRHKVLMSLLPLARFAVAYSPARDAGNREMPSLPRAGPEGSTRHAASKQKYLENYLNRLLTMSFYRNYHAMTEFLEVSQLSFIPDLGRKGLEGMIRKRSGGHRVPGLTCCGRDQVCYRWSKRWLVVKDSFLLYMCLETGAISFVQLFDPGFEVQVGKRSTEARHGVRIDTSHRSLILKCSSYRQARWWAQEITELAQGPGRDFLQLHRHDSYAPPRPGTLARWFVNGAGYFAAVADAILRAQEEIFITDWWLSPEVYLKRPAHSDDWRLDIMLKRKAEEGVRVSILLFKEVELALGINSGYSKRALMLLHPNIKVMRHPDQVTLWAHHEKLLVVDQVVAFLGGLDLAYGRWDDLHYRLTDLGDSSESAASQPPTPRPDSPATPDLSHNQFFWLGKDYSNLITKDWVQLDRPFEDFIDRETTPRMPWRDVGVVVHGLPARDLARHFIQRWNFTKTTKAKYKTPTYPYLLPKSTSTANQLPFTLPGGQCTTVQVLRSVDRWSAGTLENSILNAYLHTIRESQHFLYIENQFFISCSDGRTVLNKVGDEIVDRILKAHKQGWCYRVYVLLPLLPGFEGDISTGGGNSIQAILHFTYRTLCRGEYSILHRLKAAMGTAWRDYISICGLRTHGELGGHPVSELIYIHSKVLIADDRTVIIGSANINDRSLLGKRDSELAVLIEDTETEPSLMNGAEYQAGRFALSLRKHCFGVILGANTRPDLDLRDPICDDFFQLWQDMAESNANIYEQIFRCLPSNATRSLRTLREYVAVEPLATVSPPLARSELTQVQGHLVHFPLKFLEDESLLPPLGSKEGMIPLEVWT
MEASUREMENT_PROTOCOL: inhibitors of cellular PLD2 activity, cell-based (AID 743409)
DETAILS: cellular PLD2 isoenzyme activity, at 2 µM, active compounds read high
VALUE_KIND: inhibition (%)
Report the value in % with no unit label.

ITEM_SMILES	ASSAY_SYSTEM	UNITS_SYMBOL	inhibition
O=C(NCCN1CCC2(CC1)C(=O)NCN2Cc1cccnc1)c1ccc(Cl)c(Cl)c1	Phospholipase D2 (Homo sapiens) (UniProt O14939)	%	63
COc1cc(C(=O)NCCN2CCC3(CC2)C(=O)NCN3Cc2cccnc2)cc(OC)c1OC	Phospholipase D2 (Homo sapiens) (UniProt O14939)	%	15
O=C(NCCN1CCC2(CC1)C(=O)NCN2Cc1cccnc1)c1cccc(F)c1	Phospholipase D2 (Homo sapiens) (UniProt O14939)	%	14

inhibition lookup needed for O=C(NCCN1CCC2(CC1)C(=O)NCN2c1cccnc1)c1cc(F)c(F)c(F)c1 , thanks. 0

Bench note: what inhibition did O=C(NCCN1CCC2(CC1)C(=O)NCN2Cc1cccnc1)c1cccc(C(F)(F)F)c1 show? 0

###

ASSAY_SYSTEM: Phospholipase D2 (Homo sapiens) (UniProt O14939)
MEASUREMENT_PROTOCOL: inhibitors of cellular PLD2 activity, cell-based (AID 743409)
DETAILS: cellular PLD2 isoenzyme activity, at 2 µM, active compounds read high
If the reported inhibition equals or exceeds 4%, assign condition met. If not, assign condition not met.

ITEM_SMILES	LABEL
O=C(NCCN1CCC2(CC1)C(=O)NCN2c1cncc(F)c1)c1ccc(F)c(F)c1	condition not met
O=C(NCCN1CCC2(CC1)C(=O)NCN2Cc1cccnc1)c1c(Cl)cncc1Cl	condition not met

I'd appreciate it if you could say whether O=C(NCCN1CCC2(CC1)C(=O)NCN2c1ccnc(F)c1)c1ccc2ccccc2c1 has inhibition at least equal to 4%. condition met

# bool: inhibition of O=C(NCCN1CCC2(CC1)C(=O)NCN2c1cccnc1)c1ccc(Br)cc1 >= 4% condition not met

Is the recorded value of inhibition equal to or greater than 4% for this compound? Cc1cc(C)c2cc(C(=O)NCCN3CCC4(CC3)C(=O)NCN4Cc3cccnc3)[nH]c2c1 condition met

Is reported inhibition greater than or equal to 4% here: Cc1cc(Br)cnc1C(=O)NCCN1CCC2(CC1)C(=O)NCN2Cc1cccnc1 condition not met

Reported inhibition reaches at least 4% for Cc1nc2sc(C(=O)NCCN3CCC4(CC3)C(=O)NCN4Cc3cccnc3)c(N)c2c(C)c1C ? condition met

Given O=C(NCCN1CCC2(CC1)C(=O)NCN2Cc1cccnc1)c1c[nH]c2ccccc12 , state whether its inhibition is at least 4%. condition met

###

ASSAY_SYSTEM: Phospholipase D2 (Homo sapiens) (UniProt O14939)
MEASUREMENT_PROTOCOL: inhibitors of cellular PLD2 activity, cell-based (AID 743409)
DETAILS: cellular PLD2 isoenzyme activity, at 20 µM
Active and inactive are the calls of the source. How the calls were made is not given here.
A correct response names exactly one class from T = active, F = inactive

ITEM_SMILES	LABEL
O=C(NCCN1CCC2(CC1)C(=O)NCN2Cc1cccc(Cl)c1)c1ccc2ccccc2c1	T
O=C(NCCN1CCC2(CC1)C(=O)NCN2Cc1ccncc1)c1ccc2ccccc2c1	T
O=C(NCCN1CCC2(CC1)C(=O)NCN2Cc1cccnc1)c1ccc2ccccc2c1	T
O=C(NCCN1CCC2(CC1)C(=O)NCN2CC1CC1)c1ccc2ccccc2c1	T
O=C(NCCN1CCC2(CC1)C(=O)NCN2Cc1cccc(OC(F)(F)F)c1)c1ccc2ccccc2c1	F
O=C(NCCN1CCC2(CC1)C(=O)NCN2Cc1ccccc1Br)c1ccc2ccccc2c1	T

In this assay, the call recorded for O=C(NCCN1CCC2(CC1)C(=O)NCN2Cc1cccc2ccccc12)c1ccc2ccccc2c1 was what? T

Dear colleague, could you share the recorded outcome for O=C(NCCN1CCC2(CC1)C(=O)NCN2Cc1ccccc1Cl)c1ccc2ccccc2c1 when you have a moment? T

What classification did COc1cccc(C(=O)N2CNC(=O)C23CCN(CCNC(=O)c2ccc4ccccc4c2)CC3)c1 end up with in this test? T

Hello, I am checking results. What call was entered for O=C(NCCN1CCC2(CC1)C(=O)NCN2C(=O)c1ccccc1)c1ccc2ccccc2c1 ? T

Field: outcome | Entry: O=C(NCCN1CCC2(CC1)C(=O)NCN2Cc1ccc(Cl)cc1)c1ccc2ccccc2c1 T

Outcome? O=C(NCCN1CCC2(CC1)C(=O)NCN2Cc1ccccc1)c1ccc2ccccc2c1 T

How did this test come out for O=C(NCCN1CCC2(CC1)NCNC2=O)c1ccc2ccccc2c1 ? F

Give the logged outcome of this assay for the following molecule: O=C(NCCN1CCC2(CC1)C(=O)NCN2Cc1ccccn1)c1ccc2ccccc2c1 T

Please let me know the test result on file for O=C(NCCN1CCC2(CC1)C(=O)NCN2C(=O)C1CCC1)c1ccc2ccccc2c1 . T

Per the records of this test, what outcome belongs to O=C(NCCN1CCC2(CC1)C(=O)NCN2C(=O)c1cccc(F)c1)c1ccc2ccccc2c1 ? T

Hi team, can someone confirm the assay call for O=C(NCCN1CCC2(CC1)C(=O)NCN2C(=O)C1CC1)c1ccc2ccccc2c1 ? T
